- System: HEK-293T
- assay_method_text: Multiplex assay against HEK293T
- Type: toxicity, cell-based
- setup_conditions: human, 24 h, 1 µM, compound concentration 1 uM, replicate 2
value_type: Population Mitotic Cells (%)

>>> obs_value("Cl.O=C(O)c1cc(-c2ccc(C3CCNCC3)cc2)c2ccc(-c3ccc(C(F)(F)F)cc3)cc2c1")
90
>>> obs_value("CN1CCN(Cc2cc(NC(=O)c3ccc4c(c3)CN(c3ccccc3)CC4)cc(C(F)(F)F)c2)CC1")
88
>>> obs_value("O=c1cc(N2CCOCC2)oc2c(-c3cccc4c3sc3ccccc34)cccc12")
83
>>> obs_value("C=CC(=O)Nc1cccc(Sc2nc(Nc3ccc(N4CCN(C)CC4)cc3)ncc2Cl)c1")
71
>>> obs_value("Cc1c[nH]c2nccc(Oc3c(F)cc(Nc4cc(Cl)nc(N)n4)cc3F)c12 [BAY-549]")
81
>>> obs_value("CNC(=O)Nc1ccc2c(c1)[C@@]1(CC2)OC(=O)N(CC(=O)N(Cc2ccc(F)cc2)[C@@H](C)C(F)(F)F)C1=O [A-486]")
93
>>> obs_value("CC(C)(C)NC[C@H](O)COc1nsnc1N1CCOCC1 [TIMOLOL]")
91
>>> obs_value("CC(C)CC(=O)Nc1[nH]nc2c1CN(C(=O)C1CCN(C)CC1)C2(C)C [PHA-793887]")
88
>>> obs_value("CC(C)c1noc(N2CCC(COc3ccc(-c4ccc(S(C)(=O)=O)cc4)nc3)CC2)n1 [GSK-1292263]")
84
>>> obs_value("CC1=C(C(=O)Nc2cc3cn[nH]c3cc2F)C(c2ccc(C(F)(F)F)cc2)CC(=O)N1 (stereo not drawn)")
87
>>> obs_value("C=CC(=O)Nc1cccc(Oc2nc(Nc3ccc(N4CCN(C)CC4)cc3OC)ncc2Cl)c1")
86
>>> obs_value("COc1cc(Nc2nccc(-c3cnn4nc(OC)ccc34)n2)cc(C(F)(F)F)c1")
91
>>> obs_value("COc1ccc(-c2ccc3ncc4c(c3c2)n(-c2ccc(N3CCNCC3)c(C(F)(F)F)c2)c(=O)n4C)cn1.O=C(O)/C=C\\C(=O)O [BGT-226]")
15
>>> obs_value("CCOC(=O)Nc1cc(-c2ccc(C)c(NS(C)(=O)=O)c2)nn2c(C)nnc12")
93
>>> obs_value("Cc1ccccc1C(c1ccccc1C)N1C2CCC1CC(O)(c1ccccc1)C2 (stereo not drawn)")
86
>>> obs_value("Cc1nc(N2CC[C@H](O)C2)ncc1-c1cc(C(F)(F)F)cc2[nH]ncc12")
96
>>> obs_value("COc1cc2ncn(-c3cc(OCc4ccccc4C(F)(F)F)c(C(N)=O)s3)c2cc1OC [GW843682X]")
75
>>> obs_value("O=C(c1cc2c(cc1F)OC(c1ccc(F)cc1)(c1ccc(Cl)cc1Cl)O2)N1CCOCC1 (stereo not drawn)")
85

====

- System: U2OS
- assay_method_text: Multiplex assay against U2OS
- Assay type: toxicity, cell-based
- setup_conditions: human, 12 h, 1 µM, compound concentration 1 uM, replicate 2
value_type: Total Cell Count

>>> obs_value("CNC(=O)Nc1ccc2c(c1)[C@@]1(CC2)OC(=O)N(CC(=O)N(Cc2ccc(F)cc2)[C@@H](C)C(F)(F)F)C1=O")
105
>>> obs_value("CNC(=O)Nc1ccc(-c2nc(N3CC4CCC(C3)O4)c3cnn(C4CCC5(CC4)OCCO5)c3n2)cc1")
54
>>> obs_value("CC(C)c1noc(N2CCC(COc3ccc(-c4ccc(S(C)(=O)=O)cc4)nc3)CC2)n1")
89
>>> obs_value("Cc1cccc(CN2CCN(C(c3ccccc3)c3ccc(Cl)cc3)CC2)c1.Cl.Cl (stereo not drawn)")
48
>>> obs_value("CC(C)OC(=O)N1CCC(Oc2ncnc3c2cnn3-c2ccc(S(C)(=O)=O)cc2F)CC1")
97
>>> obs_value("COc1ccccc1CN[C@H]1C2CCN(CC2)[C@H]1C(c1ccccc1)c1ccccc1")
90
>>> obs_value("CN1CCN(Cc2ccc(Nc3ncc(Cl)c(Nc4ccccc4S(=O)(=O)N(C)C)n3)cc2)CC1")
65
>>> obs_value("Cc1nc(N2CC[C@H](O)C2)ncc1-c1cc(C(F)(F)F)cc2[nH]ncc12")
111
